Test system: human maximum recommended daily dose, FDA database
Assay: DSSTox (FDAMDD) FDA Maximum (Recommended) Daily Dose Database
Details: TherapeuticCategory: antiglaucomal agent; carbonic anhydrase inhibitor; stronger effect = lower value
Source text: The Food and Drug Administration (FDA) Center for Drug Evaluation and Research, Office of Pharmaceutical Science, Informatics and Computational Safety Analysis Staff's Maximum Recommended Daily Dose (FDAMDD) database contains values for over 1200 pharmaceuticals listed in Martindale: The Extra Pharmacopoeia (1973, 1983, and 1993) and The Physicians' Desk Reference (1995 and 1999). […]
property: maximum recommended daily dose (mmol/kg-bw/day)

cpdsmiles=CCN[C@H]1C[C@H](C)S(=O)(=O)c2sc(S(N)(=O)=O)cc21 numericresult=0.00308
